B1: POU domain, class 2, transcription factor 2, residues 200 to 269; numbered along this chain, P09086 (parent)
chain: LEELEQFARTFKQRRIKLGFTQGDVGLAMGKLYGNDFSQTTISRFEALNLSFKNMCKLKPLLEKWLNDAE

Variants of: B1
Assay summary: abundance fitness (aPCA) (normalised: wild type 0, dead -1); higher = more abundant; growth selection in yeast, the domain comes from the species named
Measurement setup: Homo sapiens
Returns 1 if the recorded abundance fitness is greater than or equal to -0.07, and -1 otherwise.

Request: Confirm if abundance fitness reported for the variant A47L is -0.07 or above.
Response: 1

Request: Confirm if abundance fitness reported for the variant K17A is -0.07 or above.
Response: 1

Request: Confirm if abundance fitness reported for the variant L18T is -0.07 or above.
Response: -1

Request: Confirm if abundance fitness reported for the variant K64M is -0.07 or above.
Response: -1

Request: Confirm if abundance fitness reported for the variant A47S is -0.07 or above.
Response: 1

Request: Confirm if abundance fitness reported for the variant E3Q is -0.07 or above.
Response: 1

Request: Confirm if abundance fitness reported for the variant R15Y is -0.07 or above.
Response: -1

Request: Confirm if abundance fitness reported for the variant I42Y is -0.07 or above.
Response: -1

Request: Confirm if abundance fitness reported for the variant T10H is -0.07 or above.
Response: 1

Request: Confirm if abundance fitness reported for the variant T41A is -0.07 or above.
Response: 1

Request: Confirm if abundance fitness reported for the variant M55C is -0.07 or above.
Response: -1

Request: Confirm if abundance fitness reported for the variant E46Q is -0.07 or above.
Response: -1

Request: Confirm if abundance fitness reported for the variant N35M is -0.07 or above.
Response: 1

Request: Confirm if abundance fitness reported for the variant E46G is -0.07 or above.
Response: -1

Request: Confirm if abundance fitness reported for the variant G19I is -0.07 or above.
Response: -1

Request: Confirm if abundance fitness reported for the variant A47I is -0.07 or above.
Response: 1

Request: Confirm if abundance fitness reported for the variant K31R is -0.07 or above.
Response: 1

Request: Confirm if abundance fitness reported for the variant G34V is -0.07 or above.
Response: -1

Request: Confirm if abundance fitness reported for the variant K12R is -0.07 or above.
Response: -1

Request: Confirm if abundance fitness reported for the variant G30T is -0.07 or above.
Response: 1

Request: Confirm if abundance fitness reported for the variant L50A is -0.07 or above.
Response: -1

Request: Confirm if abundance fitness reported for the variant L66H is -0.07 or above.
Response: -1

Request: Confirm if abundance fitness reported for the variant F7R is -0.07 or above.
Response: -1
